- protocol_summary: NCI Yeast Anticancer Drug Screen. Data for the mec2-1 strain (AID 157)
- recorded_conditions: S. cerevisiae mec2-1 strain, at 5.0 µM (retest, dose inferred, filed as 0.5)
- Method: Growth inhibition of yeast strains with defined genetic alterations is measured as a screen for potential anti-cancer activity. Selected strains with alterations in DNA damage repair or cell cycle control were exposed to compounds and growth inhibition was measured relative to vehicle treated controls. The strain used in this assay is mec2-1
Compounds without any hit were thinned out: in the full panel of roughly 79,000, 15% have a hit. Calls of active or inactive are those of the source. No stated cut-off is given here; in the data, active means growth inhibition above about 70%; inactive means the rest.
Labels: 1.0 for active, 0.0 for inactive

compound=CC1=CC(=C(c2ccc(N)c(C)c2)c2ccc(N)c(C)c2)C=CC1=N class=0.0
compound="CCCCCCCCCCCCCCCCCCN(C)C(COC)COP(=O)([O-])OCC[N+](C)(C)C (configuration not stated)" class=0.0
compound="Cc1cccc(C)c1NC(=O)C(C#N)C1=C(Cl)C(=O)c2ccccc2C1=O (configuration not stated)" class=1.0
compound="NC(CS)C(=O)NCCNc1ccc(NCCNC(=O)C(N)CS)c2c1C(=O)c1c(O)ccc(O)c1C2=O (configuration not stated)" class=0.0
compound="CC1(c2ccccc2)O[C@@H]2C[C@H]3[C@@H]4CCC5=CC(=O)C=C[C@]5(C)[C@@]4(F)[C@@H](O)C[C@]3(C)[C@]2(C(=O)CO)O1 (some centres not stated)" class=0.0
compound=O=S1(=O)CCC2=CC(C(F)(F)F)=CC(C(F)(F)F)=CN21 class=0.0
compound=CCOc1ccc2nc3ccccc3c(N)c2c1 class=0.0
compound=COc1cc2oc3ccccc3c(=O)c2cc1CSc1ccccc1N class=0.0
compound=CC/C(=C(\c1ccccc1)c1ccc(OCC[N+](C)(C)C)cc1)c1ccccc1 class=0.0
compound=c1c[nH]c(CN2CCN(Cc3ncc[nH]3)CC2)n1 class=0.0
compound=Cc1ccc(C)c(C(=N)c2ccccc2Cc2ccccc2)c1 class=0.0
compound=CCN(CC)CCNc1ccc2nc(C)n3c4ccc(OC)cc4c(=O)c1c23 class=0.0
compound="Cc1cccc(C)c1NC(=O)CCC(=O)C(C)C(=O)c1ccc(O)cc1 (configuration not stated)" class=0.0
compound=Cc1nc2sc3c(c2c(=O)o1)CCCC3 class=0.0
compound=CC1(C)OC(=O)C(=Cc2ccc([N+](=O)[O-])s2)C(=O)O1 class=0.0
compound=CC(C)OP(=O)(OC(C)C)/C(Cl)=N/Nc1ccc([N+](=O)[O-])cc1 class=0.0
compound=Oc1ccc(C2(c3ccc(O)cc3)CCCC2)cc1 class=0.0
compound=CCOC(=O)/C(=C/c1cccc(Cl)c1)N(CC)CC class=0.0
compound=Cc1oc2ccccc2c(=O)c1Cn1nnc2ccccc21 class=0.0
compound=COc1ccc2nc3cccc([N+](=O)[O-])c3c(NCCCCCC(=O)O)c2c1 class=1.0
compound=CCCCCCCCCCCNC=O class=0.0
compound=CC(C)CCC[C@@H](C)[C@H]1CC[C@H]2[C@@H]3CC[C@H]4C[C@H](N)CC[C@]4(C)[C@H]3CC[C@]12C class=0.0
